Sourced from patent US6737383B1

Tested on: rape
Test: Test B pre/postemergence rape
Assay type: in vivo, Brassica napus
Assay setup: Preemergence, Rate 500 g/ha; scale of 0 to 10 where 0 is no effect and 10 is complete control
Measurement label: Rape plant response rating
I'd appreciate a reply containing only the number, no unit.

CC(C)N(C(=O)n1oc(=O)n(C2CCC2)c1=O)c1ccc(F)cc1 = 10
CC(Cl)=CCn1c(=O)on(C(=O)N(c2ccc(Cl)cc2)C(C)C)c1=O = 6
Cc1ccccc1-n1c(=O)on(C(=O)N(c2ccc3ccccc3c2)C(C)C)c1=O = 0
C=C(Cn1c(=O)on(C(=O)N(c2ccccc2)C(C)C)c1=O)c1cccnc1 = 0

Kindly review the next compound as well.
Which value of Rape plant response rating has been reported for `CCOCn1c(=O)on(C(=O)N(c2ccc(F)cc2F)C(C)C)c1=O` in the records?
10

====

Tested on: blackgrass
Test: Test B pre/postemergence blackgrass
Type: in vivo, Alopecurus myosuroides
Assay setup: Postemergence, Rate 500 g/ha; scale of 0 to 10 where 0 is no effect and 10 is complete control
Procedure: […] At the same time, these crop and weed species were also treated with postemergence applications of test chemicals formulated in the same manner. […] Treated plants and controls were maintained in a greenhouse for twelve to sixteen days, after which all species were compared to controls and visually evaluated. […]
Each entry below carries its reported Blackgrass plant response rating.
I'd appreciate a reply containing only the number, no unit.

Look over these answered cases.
CC(C)N(C(=O)n1oc(=O)n(CCl)c1=O)c1ccc(Cl)cc1 = 0
CC(C)N(C(=O)n1oc(=O)n(CCCC(F)(F)F)c1=O)c1ccc(F)cc1 = 9
CC(C)N(C(=O)n1oc(=O)n(C(C)CCl)c1=O)c1ccc(Cl)cc1 (stereo not shown) = 8

Kindly review the next molecule as well.
Find the measured Blackgrass plant response rating: item CC(C)N(C(=O)n1oc(=O)n(C(C)Cl)c1=O)c1ccc(F)cc1 (stereo not shown) , target or system blackgrass.
8

====

Tested on: wheat
Test: Test B pre/postemergence wheat
Format: in vivo, Triticum aestivum
Assay setup: Preemergence, Rate 62 g/ha; scale of 0 to 10 where 0 is no effect and 10 is complete control
Each entry below carries its reported Wheat plant response rating.
I'd appreciate a reply containing only the number, no unit.

Look over these answered cases.
CC[C@@H](C)n1c(=O)on(C(=O)N(c2ccc(F)cc2F)C(C)C)c1=O = 2
Cc1ccccc1-n1c(=O)on(C(=O)N(c2cccc(F)c2)C(C)C)c1=O = 0
CC(C)N(C(=O)n1oc(=O)n(CC(=O)C2CCC2)c1=O)c1ccc(Cl)cc1 = 0

Kindly review the next molecule as well.
Which value of Wheat plant response rating has been reported for `Cc1ccccc1-n1c(=O)on(C(=O)N(c2ccc(S(C)(=O)=O)cc2)C(C)C)c1=O` in the records?
0

====

System: pigweed
Test: Test B pre/postemergence pigweed
Type: in vivo, Amaranthus retroflexus
Assay setup: Preemergence, Rate 500 g/ha; scale of 0 to 10 where 0 is no effect and 10 is complete control
Measurement label: Plant response rating, Redroot pigweed
I'd appreciate a reply containing only the number, no unit.

Look over these answered cases.
Cc1ccccc1-n1c(=O)on(C(=O)N(c2ccccc2F)C(C)C)c1=O [Compound 204] = 0
COCCOCn1c(=O)on(C(=O)N(c2ccc(F)cc2)C(C)C)c1=O [Compound 258] = 10
CC(C)N(C(=O)n1oc(=O)n(CC(=O)C2CCC2)c1=O)c1ccc(Cl)cc1 [Compound 643] = 5
Cc1cc(C)c(-n2c(=O)on(C(=O)N(c3ccc(F)cc3)C(C)C)c2=O)c(Br)c1 [Compound 224] = 4

Which value of Plant response rating, Redroot pigweed has been reported for CCCCCn1c(=O)on(C(=O)N(c2ccc(F)cc2F)C(C)C)c1=O [Compound 636] in the records?
10
